test system: MOLT-4 leukemia; assay: NCI-60 one-dose screen, 48 h (100 = growth as untreated, 0 = no growth, -100 = all killed); conditions: 10 µM unless noted
Compounds without any hit were thinned out: in the full panel of roughly 83,000, 20% have a hit.
measured_parameter: growth (%)

[[record]]
molecule = "C=C1CC[C@@H]2[C@]3(C)COC(c4cn[nH]c4-c4cccc(Cl)c4)O[C@@H]3CC[C@@]2(C)[C@@H]1C/C=C1/C(=O)OCC1O (stereo not given in full)"
measured_parameter = "growth"
endpoint_value = 12.7

[[record]]
molecule = "CC1(C)CC[C@]2(C(=O)O)CC[C@]3(C)C(=CCC4[C@@]5(C)C[C@@H](O)[C@@H]6OC(c7ccccc7F)OC[C@@]6(C)C5CC[C@]43C)C2C1 (stereo not given in full)"
measured_parameter = "growth"
endpoint_value = 2.87

[[record]]
molecule = "COc1cccc(-c2c(C#N)c(-c3ccc(Cl)cc3)nc3n[nH]c(-c4ccc(Cl)cc4)c23)c1"
measured_parameter = "growth"
endpoint_value = 2.7

[[record]]
molecule = "COc1ccc(NC(=O)Cn2c3c(sc2=O)[C@H]2[C@@H](O)[C@@H](O)[C@H](O)[C@@H]2CS3)cc1"
measured_parameter = "growth"
endpoint_value = 108

[[record]]
molecule = "O=C(N/N=C/c1ccc(-c2ccc(O)cc2)s1)c1[nH]c2ccc(Br)cc2c1-c1ccccc1"
measured_parameter = "growth"
endpoint_value = -13.3

[[record]]
molecule = "Cc1cc(C)cc(NC(=O)Cn2cc(COn3nnc4ccccc43)nn2)c1"
measured_parameter = "growth"
endpoint_value = 100

[[record]]
molecule = "Clc1cccc(Cl)c1/C=C/c1cc(/C=C/c2ccc(Br)cc2)c2ccccc2n1"
measured_parameter = "growth"
endpoint_value = 84.8

[[record]]
molecule = "CC(=O)OC[C@@]1(C)C2CC[C@]3(C)C(CC=C4C5CC(C)(C)CC[C@]5(C(=O)Nc5ccc(F)cc5)CC[C@]43C)[C@@]2(C)C[C@@H](OC(C)=O)[C@@H]1OC(C)=O (stereo not given in full)"
measured_parameter = "growth"
endpoint_value = 35

[[record]]
molecule = "CCN(CC)c1ccnc(CNCCSC(c2ccccc2)(c2ccccc2)c2ccc(OC)cc2)c1"
measured_parameter = "growth"
endpoint_value = 12.9

[[record]]
molecule = "COc1ccc(/C=C2\\C(=N)N=C(SCc3nc4ccccc4[nH]3)NC2=O)cc1"
measured_parameter = "growth"
endpoint_value = 104

[[record]]
molecule = "COc1ccc([C@H](C)Nc2nc(Cl)nc3ccccc23)cc1"
measured_parameter = "growth"
endpoint_value = 20.8

[[record]]
molecule = "CCOC(=O)C(N=Nc1ccc(S(=O)(=O)N=C(N)N)cc1)C(C)=O (stereo not given)"
measured_parameter = "growth"
endpoint_value = 110

[[record]]
molecule = "COc1ccc(/C=C/c2nc3ccccc3nc2Nc2cccc(C)c2)cc1"
measured_parameter = "growth"
endpoint_value = 82.7

[[record]]
molecule = "C#CCOc1cc(N(CC)CC)ccc1C(C(=O)NC(C)(C)C)N(C(=O)C1CCc2cc(F)ccc2O1)c1ccc(Br)cc1 (stereo not given)"
measured_parameter = "growth"
endpoint_value = 21.8

[[record]]
molecule = "CC1(C)CC[C@]2(C(=O)Nc3ccc(Br)cc3)CC[C@]3(C)C(=CCC4[C@@]5(C)C[C@@H](O)[C@H](O)[C@@](C)(CO)C5CC[C@]43C)C2C1 (stereo not given in full)"
measured_parameter = "growth"
endpoint_value = -10.5

[[record]]
molecule = "O=C(Cn1c(/C=C/c2ccccc2)nc2ccccc2c1=O)Nc1ccccc1"
measured_parameter = "growth"
endpoint_value = 73

[[record]]
molecule = "Cc1ccc(C2CC(c3ccc(S(=O)(=O)NCCNc4nc(Nc5ccc(F)cc5)nc(N(C)C)n4)cc3)=Nc3c(N)nc(N)nc3N2)cc1 (stereo not given)"
measured_parameter = "growth"
endpoint_value = 4.77

[[record]]
molecule = "COc1cc(C2CC(c3cc(OC)c(OC)c(OC)c3)=NN2C(C)=O)ccc1OCc1ccc(F)cc1 (stereo not given)"
measured_parameter = "growth"
endpoint_value = 30.6

[[record]]
molecule = "CC(=O)Oc1ccccc1C(=O)[Se]C(=NC1CCCCC1)NC1CCCCC1"
measured_parameter = "growth"
endpoint_value = -22.2

[[record]]
molecule = "COc1cc(/C=C/C(=O)c2ccccc2)ccc1Oc1nc(Nc2ccc(F)cc2)nc(N(C)C)n1"
measured_parameter = "growth"
endpoint_value = 7.1

[[record]]
molecule = "CN(C)c1nc(NCCNS(=O)(=O)c2ccc(C3=Nc4c(N)nc(N)nc4NC(c4ccccc4)C3)cc2)nc(Nc2ccc(F)cc2)n1 (stereo not given)"
measured_parameter = "growth"
endpoint_value = 2.62

[[record]]
molecule = "S=C(Nc1ccccc1)Nc1ccc(OCc2nc3ccccc3[nH]2)cc1"
measured_parameter = "growth"
endpoint_value = 19.8

[[record]]
molecule = "NC(=S)Nc1cccc(NC(N)=S)c1"
measured_parameter = "growth"
endpoint_value = 89.7

[[record]]
molecule = "CC1=C(C(=O)c2ccccc2)C(c2cccc(Cl)c2Cl)n2c(nc3ccccc32)N1 (stereo not given)"
measured_parameter = "growth"
endpoint_value = 45.6

[[record]]
molecule = "CCN(CC)CCOc1ccc(Nc2ncc3cc(-c4ccc(O)c(C#N)c4)c(=O)n(C)c3n2)cc1"
measured_parameter = "growth"
endpoint_value = 3.63

[[record]]
molecule = "Cn1cc(-c2cc(N)n3nc(-c4c[nH]c5ccccc45)cc3n2)c2cc(Br)cnc21"
measured_parameter = "growth"
endpoint_value = -52

[[record]]
molecule = "Cn1cc(-c2cc(N)n3nc(-c4cn(C)c5ncccc45)cc3n2)c2cccnc21"
measured_parameter = "growth"
endpoint_value = 53.5

[[record]]
molecule = "COc1ccc(-c2c(Nn3cnnn3)no[n+]2[O-])cc1"
measured_parameter = "growth"
endpoint_value = 27.9

[[record]]
molecule = "O=C(CN1C(=O)/C(=C/c2ccccc2F)SC1=S)N1CCOCC1"
measured_parameter = "growth"
endpoint_value = 77.7

[[record]]
molecule = "N#Cc1c(-c2ccc(Br)cc2)nc2n[nH]c(-c3ccc(Br)cc3)c2c1-c1ccc(C(F)(F)F)cc1"
measured_parameter = "growth"
endpoint_value = 4.06

[[record]]
molecule = "CN(C)CCCNC(=O)c1cc(NC(=O)c2cc(NC(=O)c3ccc(/C=C/c4ccccc4)cc3)cn2C)cn1C"
measured_parameter = "growth"
endpoint_value = -5.97

[[record]]
molecule = "CCOC(=O)C1=C(N)N(c2ccccc2)C2=C(C(=O)CC(C)(C)C2)C1c1ccc([N+](=O)[O-])cc1 (stereo not given)"
measured_parameter = "growth"
endpoint_value = 78.3

[[record]]
molecule = "CN(C)c1nc(NCCNS(=O)(=O)c2ccc(C3=Nc4c(N)nc(N)nc4NC(c4ccc(Cl)cc4)C3)cc2)nc(Nc2ccc(F)cc2)n1 (stereo not given)"
measured_parameter = "growth"
endpoint_value = 7.27

[[record]]
molecule = "Cc1cc2nc3c4ccccc4n(CC4=NCCN4)c3nc2cc1C"
measured_parameter = "growth"
endpoint_value = -19.4

[[record]]
molecule = "CC(=O)Nc1ccc(C(=O)NC(=S)Nc2ccc(S(N)(=O)=O)cc2)cc1"
measured_parameter = "growth"
endpoint_value = 111

